Where do these numbers come from? They come from patent US11932653B2.

# TEST DETAILS: Cytotoxicity in uninfected RD cells (CC50, MTT)
# Type: cell-based
# CONDITION DETAILS: human, Table 1
MEASURED QUANTITY: CC50 at 48 h

MOLECULE	MEASURED QUANTITY	MEASURED VALUE
O=C(COc1ccccc1Cl)OC1C(O)C=C2CCN3Cc4cc5c(cc4C1C23)OCO5 (stereo not drawn)	CC50 at 48 h	145 µM
COc1ccc(OCC(=O)OC2C(O)C=C3CCN4Cc5cc6c(cc5C2C34)OCO6)cc1 (stereo not drawn)	CC50 at 48 h	161 µM
O=C(CSc1ccccc1)OC1C(O)C=C2CCN3Cc4cc5c(cc4C1C23)OCO5 (stereo not drawn)	CC50 at 48 h	114 µM
